Target: trypsin
Assay: phage TRF on trypsin

{"binder": "KB_B10 (scFv on phage) (scFv, V domains shown) VH: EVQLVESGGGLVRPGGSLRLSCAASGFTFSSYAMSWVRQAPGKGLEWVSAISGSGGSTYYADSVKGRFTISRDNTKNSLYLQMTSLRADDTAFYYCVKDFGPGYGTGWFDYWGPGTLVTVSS VL: QSVLTQLPSVSEAPRQRVTITCGRAMCPRILMRCKQDSDCLAGCVCGPNGFCGTGNWYQQHPGKAPKLIIFDVSKRPSGVPDRFSASKSGNTASLTISGLQAEDEADYYCNSYTSSNTWVFGGGTQLTVLG", "Tryspin binding signal (FU)": 9270}

This collection of values is drawn from patent US20230331827A1.
